- test.details: Sorafenib metabolism/clearance in subcutaneous tumor tissues, LC-MS/MS
- Format: in vivo, nude mice
- measurement.conditions: nude, mouse, subcutaneous tumor tissue formed by HepG2 cells, Control, median (95% CI), read-out: t1/2 values (converted)
readout.type: half-life (h)
Give the value in h but do not write h after it.

In: # half-life lookup, item CNC(=O)c1cc(Oc2ccc(NC(=O)Nc3ccc(Cl)c(C(F)(F)F)c3)cc2)ccn1
Out: 29.4

* * *

- test.details: Blood concentration assay of sorafenib, mice bearing MHCC97-H tumours
- Assay type: in vivo
- measurement.conditions: nude, mouse, plasma, po, 2 mg/kg, 20 h; intrahepatic MHCC97-H siTPX2 tumour; 2 mg/kg oral
readout.type: concentration at 20 h (ng/mL)
Give the value in ng/mL but do not write ng/mL after it.

In: # concentration at 20 h lookup, item CNC(=O)c1cc(Oc2ccc(NC(=O)Nc3ccc(Cl)c(C(F)(F)F)c3)cc2)ccn1 [sorafenib]
Out: 127

* * *

- test.details: Sorafenib metabolism/clearance in cultured cells, LC-MS/MS
- Type: in vitro ADME
- measurement.conditions: human, MHCC97-L cells, Control, median (95% CI), read-out: t1/2 values (converted)
readout.type: half-life at 1 μmol/L (h)
Give the value in h but do not write h after it.

In: # half-life at 1 μmol/L lookup, item CNC(=O)c1cc(Oc2ccc(NC(=O)Nc3ccc(Cl)c(C(F)(F)F)c3)cc2)ccn1 [sorafenib]
Out: 18.7

* * *

- test.details: Blood concentration assay of sorafenib, mice bearing MHCC97-L tumours
- Type: in vivo
- measurement.conditions: nude, mouse, plasma, oral, 2 mg/kg, 40 h; Subcutaneous MHCC97-L Control tumour; 2 mg/kg oral
readout.type: concentration at 40 h (ng/mL)
Give the value in ng/mL but do not write ng/mL after it.

In: # concentration at 40 h lookup, item CNC(=O)c1cc(Oc2ccc(NC(=O)Nc3ccc(Cl)c(C(F)(F)F)c3)cc2)ccn1
Out: 44.4

* * *

- System: MHCC97-L cells
- test.details: MTT cell survival examination
- Format: cell-based
- measurement.conditions: Homo sapiens, MHCC97L, 48 h, TPX2 overexpression, median (95% CI)
The entries below come with measured pIC50 values attached.
Notebook: values listed as pIC50 are -log10 of the concentration (mol/L).

These solved cases illustrate the format of a correct answer.
1) COc1cccc2c1C(=O)c1c(O)c3c(c(O)c1C2=O)C[C@@](O)(C(=O)CO)C[C@@H]3O[C@H]1C[C@H](N)[C@H](O)[C@H](C)O1; 6.09
2) CCc1c2c(nc3ccc(OC(=O)N4CCC(N5CCCCC5)CC4)cc13)-c1cc3c(c(=O)n1C2)COC(=O)[C@]3(O)CC; 6.01
3) CC(=O)O[C@H]1C(=O)[C@@]2(C)[C@H]([C@H](OC(=O)c3ccccc3)[C@]3(O)C[C@H](OC(=O)[C@H](O)[C@@H](NC(=O)c4ccccc4)c4ccccc4)C(C)=C1C3(C)C)[C@]1(OC(C)=O)CO[C@@H]1C[C@@H]2O; 6.82
4) CNC(=O)c1cc(Oc2ccc(NC(=O)Nc3ccc(Cl)c(C(F)(F)F)c3)cc2)ccn1; 5.32
5) COc1cc([C@@H]2c3cc4c(cc3[C@@H](O[C@@H]3O[C@@H]5CO[C@@H](C)O[C@H]5[C@H](O)[C@H]3O)[C@H]3COC(=O)[C@H]23)OCO4)cc(OC)c1O [etoposide]; 5.88
6) COc1cc2nccc(Oc3ccc(NC(=O)NC4CC4)c(Cl)c3)c2cc1C(N)=O; 5.24

In: Field: pIC50 (MHCC97-L cells). Entry: COc1cc2nccc(Oc3ccc(NC(=O)C4(C(=O)Nc5ccc(F)cc5)CC4)cc3)c2cc1OC [cabozantinib]
Out: 5.30

In: Field: pIC50 (MHCC97-L cells). Entry: CNC(=O)c1cc(Oc2ccc(NC(=O)Nc3ccc(Cl)c(C(F)(F)F)c3)c(F)c2)ccn1
Out: 5.31

* * *

- test.details: Blood concentration assay of sorafenib, mice bearing MHCC97-L tumours
- Type: in vivo
- measurement.conditions: nude, mouse, plasma, oral, 2 mg/kg, 8 h; Subcutaneous MHCC97-L Control tumour; 2 mg/kg oral
readout.type: concentration at 8 h (ng/mL)
Give the value in ng/mL but do not write ng/mL after it.

In: # concentration at 8 h lookup, item CNC(=O)c1cc(Oc2ccc(NC(=O)Nc3ccc(Cl)c(C(F)(F)F)c3)cc2)ccn1
Out: 142
